System: atopic dermatitis-induced Nc/Nga mouse
procedure-summary: SCORAD clinical skin score, DNFB-induced atopic dermatitis in Nc/Nga mouse
Assay type: in vivo
Parameters: key: sum of individual symptom scores, each graded 0-3
measurement-context: Mouse 1; DNFB Nc/Nga; 0.1% topical day 15-21; sum of individual scores
The label depends only on Mouse 1 Sum: T if it is at least 10, F if it is smaller.

Previously resolved entries follow.
{"smi": "CCCCCCCCCCCCCCCCCC(=O)N[C@@H](Cc1c[nH]c2ccccc12)C(=O)O", "group": "T"}
{"smi": "CCCCCCCC/C=C\\CCCCCCCC(=O)N[C@@H](Cc1c[nH]c2ccccc12)C(=O)O", "group": "T"}
{"smi": "CCCCC(=O)N[C@@H](Cc1c[nH]c2ccccc12)C(=O)O", "group": "T"}
{"smi": "CC(=O)N[C@@H](CCC(=O)N[C@@H](C)C(=O)O)C(=O)O", "group": "F"}

Consider the additional compound presented here.
Q. # bool: Mouse 1 Sum of CCCCCCCCCCC(=O)N[C@@H](Cc1c[nH]c2ccccc12)C(=O)O >= 10
A. F
